Test system: U2OS
experimental.details: cell viability relative to DMSO; higher = less toxic
assay.setup: 72 h; 100 nM
For each of the compounds below, state its cell viability.
API: value field is a number in %; no unit string.

Challenge: Notebook: pull reported cell viability for U2OS, entry COc1cc(C[C@@H]2NCCc3cc(O)c(O)cc32)cc(OC)c1OC [trimethoquinol]
Response given: 97.3

Challenge: Moving on to Cn1cc(C2=C(c3cn(CCCSC(=N)N)c4ccccc34)C(=O)NC2=O)c2ccccc21 [bisindolylmaleimide-IX]
Response given: 106

Challenge: Another compound: "N[C@@H](CC(=O)Nc1ccc(Oc2cc(F)c(F)cc2Br)cc1)C(=O)O"
Response given: 101

Challenge: Would you mind doing CCC[N+]12[C@H](O)[C@@H](CC)[C@@H]3C[C@H]1[C@@H]1N(C)c4ccccc4[C@]14C[C@H]2[C@@H]3[C@H]4O [neo-gilurytmal] as well?
Response given: 101

Challenge: Same thing, different compound: COC(=O)C1=C(C)NC(C)=C(C(=O)OCC(C)C)C1c1ccccc1[N+](=O)[O-] (stereo not drawn) [nisoldipine]
Response given: 102

Challenge: Similarly, CC(C(=O)O)c1ccc2c(c1)[nH]c1ccc(Cl)cc12 (stereo not drawn) [carprofen] ?
Response given: 96.1

Challenge: N#CC(C#N)=Cc1ccc(O)c(O)c1 [tyrphostin-AG-18] ?
Response given: 95.2

Challenge: And the next one, CC[N+](CC)(CCCNC1=CC(=O)C(NCCC[N+](CC)(CC)Cc2ccccc2)=CC1=O)Cc1ccccc1 [benzoquinonium-dibromide] ?
Response given: 96.8

----------
System: Caco-2
experimental.details: cell viability relative to DMSO; higher = less toxic
assay.setup: 72 h; 1000 nM
reported.property: cell viability (%)
I only need the number, in %, no unit after it.

Challenge: Param item = COc1cc2c(cc1OC)C1CC(=O)C(CC(C)C)CN1CC2 (centres undefined) ; retrieve measured cell viability.
Response given: 96.5

Challenge: Then "COc1ccc(NC(=O)c2ccc(C(=N)N(C)C)cc2)c(C(=O)Nc2ccc(Cl)cn2)c1" ?
Response given: 97.6

Challenge: "COc1ccc(CN(C(=O)[C@@H](N)Cc2c(C)cc(C(N)=O)cc2C)[C@@H](C)c2ncc(-c3ccccc3)[nH]2)cc1C(=O)O" ?
Response given: 98.5

Challenge: Input "O=C(NNC(=O)c1ccc(CNS(=O)(=O)c2ccc(F)c(Cl)c2)cc1)c1ccccc1"
Response given: 99.8

Challenge: Now this one: "O=C(O)[C@H](O)c1ccccc1"
Response given: 94.4

Challenge: Please do the same for Cn1cc(C2=C(c3cn(CCCSC(=N)N)c4ccccc34)C(=O)NC2=O)c2ccccc21 [bisindolylmaleimide-IX] as well.
Response given: 94.9

Challenge: Then this molecule: "CN(C)CCOc1ccc(/C(=C(/CCCl)c2ccccc2)c2ccccc2)cc1"
Response given: 92.3

Challenge: Can you handle "CC(=O)O/N=C1\C(=O)N(Cc2cc(Cl)ccc2Cl)c2ccc(Cl)cc21" next?
Response given: 91

Challenge: Now the same for "C=CCN1CCc2cc(O)c(O)cc2[C@H](c2ccccc2)C1"
Response given: 99.5

----------
Test system: Vero E6
experimental.details: cell viability relative to DMSO; higher = less toxic
assay.setup: 72 h; 10000 nM
Give cell viability for every item shown.
Output spec: scalar in %, unitless text.

Challenge: Enter reported cell viability observed with Vero E6 for "COc1ccc(-c2oc3c(CC=C(C)C)c(O)cc(O)c3c(=O)c2O)cc1"
Response given: 107

Challenge: Now the compound "CCc1cn([C@H]2C[C@H](O)[C@@H](CO)O2)c(=O)[nH]c1=O"
Response given: 92.4

Challenge: Same thing, different compound: "COc1ccc(CCNCc2ccc(OCc3ccc(Cl)nc3)c(OC)c2)cc1OC"
Response given: 97.3

Challenge: Same lookup for CCOC(=O)c1c(C)[nH]c2ccc3c(c12)CN1CCc2cc(OC)ccc2C1O3 (centres undefined) , please.
Response given: 80.1

Challenge: // query: Oc1ccc(C2CNCCc3c2cc(O)c(O)c3Cl)cc1 (centres undefined)
Response given: 96.7

Challenge: Would you kindly repeat that for "O=C1CCC[C@@H]2[C@H]3CCCN4CCC[C@@H](CN12)[C@@H]34" ?
Response given: 104

Challenge: Quick one: C[C@]12CC[C@@H]3c4ccc(O)cc4C[C@@H](CCCCCCCCC[S+]([O-])CCCC(F)(F)C(F)(F)F)[C@H]3[C@@H]1CC[C@@H]2O (some centres undefined)
Response given: 99.6

Challenge: What do we get for "Fc1ccc(-c2nc3n(c2-c2ccncc2)CCS3)cc1" ?
Response given: 93

Challenge: Param item: "CS(=O)(=O)c1ccc([C@@H](O)[C@@H](CF)NC(=O)C(Cl)Cl)cc1"
Response given: 95.2

Challenge: Same again, this time with COP(=O)(OC)OC(c1ccc(Cl)cc1)P(=O)(OC)OC (centres undefined) [mifobate]
Response given: 100

Challenge: // same read-out, input: "CCCN1CCC[C@@H]2Cc3nc(N)ncc3C[C@H]21"
Response given: 99

Challenge: Now consider "C#Cc1cccc(Nc2ncnc3cc(OC)c(OCCCCCCC(=O)NO)cc23)c1" .
Response given: 8.4

Challenge: Further, for "CCCn1c(=O)[nH]c(=O)c2nc[nH]c21" ?
Response given: 94.5

Challenge: Request: "NCC(=O)O"
Response given: 100
